# System: UO-31 renal
# ASSAY SUMMARY: NCI-60 one-dose screen, 48 h (100 = growth as untreated, 0 = no growth, -100 = all killed)
# PROTOCOL CONDITIONS: 10 µM unless noted
# Experimental: Growth inhibition of the UO-31 human tumor cell line is measured as a screen for anti-cancer activity. Cells are grown in 96 well plates and exposed to the test compound for 48 hours. Compounds are tested at a single concentration, which is 10^-5 M for most compounds. The reported endpoint is percent growth (GI% or GIPRCNT), where numbers from 0 - 100% represent growth inhibition, and numbers from -100% - 0 represent cell death. For example, a value of 40 represents 60% growth inhibition. […]
About 83,000 compounds went through this panel and 20% of them were active in at least one assay; those are over-represented in the sample as a whole. Calls of active or inactive are those of the source. The calls were made as follows: active = growth percent below 10; inactive = the rest.
OBSERVED PROPERTY: growth

Example entries begin here.
O=C(CC1(O)C(=O)Nc2c(Cl)ccc(Cl)c21)c1ccc(Cl)cc1Cl (configuration not stated) = 86.2% (inactive)
CC(C)(C)CC(C)(C)c1ccc(OCCSC(=N)N)cc1 = 37.2% (inactive)
CCC(c1cccc(O)c1)C(CC)c1cccc(O)c1 (configuration not stated) = 64.1% (inactive)
CCCCCCC(C)c1ccccc1O (configuration not stated) (tested in a mixture with another compound) = 99.1% (inactive)
S=C(N/N=C/c1ccccn1)Nc1ccccn1 = 13% (inactive)
CNc1ccc2c(c1)c1ccccc1n2C = 92.4% (inactive)
N#Cc1ccc([N+](=O)[O-])o1 = 92.6% (inactive)
CN(C)CCOc1ccc2c(c1)C(=O)/C(=C\c1ncc([N+](=O)[O-])n1C)C2 = -36.7% (active)
NC1=CC(=O)c2ccccc2C1=O = 71.1% (inactive)
O=C1NC(=O)/C(=C/C=C/c2ccccc2)S1 = 34.1% (inactive)

Incoming: Requested read-out: growth. Entry: `COc1ccc(N=N/N=c2\sc3cc(OC)ccc3n2C)cc1`
Outgoing: 82.7% (inactive)

Incoming: Return reported growth; argument: `CNc1ccc(N)cc1`
Outgoing: 98.2% (inactive)

###

# Tested on: HCC-2998 colon
# ASSAY SUMMARY: NCI-60 one-dose screen, 48 h (100 = growth as untreated, 0 = no growth, -100 = all killed)
# PROTOCOL CONDITIONS: 10 µM unless noted
This is part of a sample that, as a whole, favours compounds with a hit. Of some 83,000 tested, about 20% had one in any assay.
Mark False for growth values under 70%, and True for everything at or above.

Past entries and their recorded results:
O=[N+]([O-])c1ccc(N=Nc2ccc(O)cc2O)cc1 = False
CCOC(=O)/C=C/c1ccc([N+](=O)[O-])o1 = True
O=C(Nc1ccccc1)c1cc(Cl)ccc1O = True

Consider now this further compound.
Incoming: Does the compound `COc1ccc2nc3cc(Cl)ccc3c(NCCNc3c4ccc(Cl)cc4nc4ccc(OC)cc34)c2c1` have recorded growth that is 70% or more?
Outgoing: False

###

# Tested on: T-47D breast
# ASSAY SUMMARY: NCI-60 one-dose screen, 48 h (100 = growth as untreated, 0 = no growth, -100 = all killed)
# PROTOCOL CONDITIONS: 100 µM
Compounds without any hit were thinned out: in the full panel of roughly 83,000, 20% have a hit.
OBSERVED PROPERTY: growth (%)
Write the value in % as a bare number.

These solved cases illustrate the format of a correct answer.
O=C(O)c1c(Cl)c(Cl)c(Cl)c(Cl)c1-c1c2cc(I)c(=O)c(I)c-2oc2c(I)c(O)c(I)cc12 = -47.8
CN(C)C(=O)c1ccc(SC(=S)NCc2ccccc2)cc1 = 13.4
O=C(Nc1c(Cl)cccc1Cl)Oc1cccc2cccnc12 = 7.28
O=C(Nc1cccc(Br)c1)Oc1cccc2cccnc12 = 2.98

Incoming: # get_value(readout='growth', item= `COc1ccc(-c2cscc2N)cc1` )
Outgoing: 17.3

Source of measurements: PubChem BioAssay (NCI)
